# System: Escherichia coli
# Procedure text: Inhibition of Escherichia coli IMP4 assessed as potentiation of meropenem-induced antibacterial activity by measuring meropenem MIC at 64 ug/ml after 16 to 18 hrs by broth microdilution method (reference value: 20 to 160 ug/ml)
Measured property: MIC

// solved cases for MIC follow
* CCN(CC)C(=S)[S-].[Na+] [DITIOCARB SODIUM] | < 16 µg/mL
* S=C([S-])N1CCCC1.[Na+] | < 16 µg/mL

Fill in MIC for each of the 2 compounds listed.
1. CCCCCCNC(=S)S
2. CCCCCCN(CCCCCC)C(=S)S

[out]
["2 to 16 µg/mL", "4 to 16 µg/mL"]

Parameters: items (list). Returns: MIC for each item.
1. CCCCCCCCN(CCCCCCCC)C(=S)S
2. S=C(S)N1CCOCC1
3. S=C([S-])N1CCCCC1.[Na+]
4. S=C(S)N1CCN(C(=S)S)CC1

[out]
["1 to 8 µg/mL", "2 to 16 µg/mL", "< 16 µg/mL", "4 to 16 µg/mL"]
